# testedOn: T1, Human CD3eg linker (human)
# T1 construct: Single chain: epsilon and gamma subunits of human CD3 joined by a 29-mer linker, Flag-tag at the C-terminus; also called recombinant human CD3
# T1 chain: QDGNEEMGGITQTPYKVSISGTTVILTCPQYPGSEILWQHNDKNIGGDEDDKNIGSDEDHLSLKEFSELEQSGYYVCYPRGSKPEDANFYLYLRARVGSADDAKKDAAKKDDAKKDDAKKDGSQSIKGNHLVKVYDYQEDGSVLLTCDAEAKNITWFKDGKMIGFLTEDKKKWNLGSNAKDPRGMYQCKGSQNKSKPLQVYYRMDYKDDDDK
# methodSummary: Biacore SPR, vs template H183/L072
Reported fold change of affinity values are given for each entry in this list.

- binder: "H183/L072 VH S30T (antibody, name in Kabat numbering, V domains shown) VH: QVQLVESGGGLVQPGRSLRLSCAASGFTFTNAWMHWVRQAPGKGLEWVAQIKDKGNAYAAYYAPSVKGRFTISRDDSKNSIYLQMNSLKTEDTAVYYCHYVHYASASTVLPAFGVDAWGQGTTVTVSS VL: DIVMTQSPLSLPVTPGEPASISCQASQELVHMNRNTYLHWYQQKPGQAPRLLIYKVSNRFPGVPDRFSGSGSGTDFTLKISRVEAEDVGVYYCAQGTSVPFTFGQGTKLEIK"
  fold change of affinity: "1.1 fold"
- binder: "H183/L072 VH D101A (antibody, name in Kabat numbering, V domains shown) VH: QVQLVESGGGLVQPGRSLRLSCAASGFTFSNAWMHWVRQAPGKGLEWVAQIKDKGNAYAAYYAPSVKGRFTISRDDSKNSIYLQMNSLKTEDTAVYYCHYVHYASASTVLPAFGVAAWGQGTTVTVSS VL: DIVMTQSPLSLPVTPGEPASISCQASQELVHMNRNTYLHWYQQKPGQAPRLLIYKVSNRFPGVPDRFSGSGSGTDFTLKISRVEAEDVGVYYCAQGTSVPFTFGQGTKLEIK"
  fold change of affinity: "0.8 fold"
- binder: "H183/L072 VH T28W (antibody, name in Kabat numbering, V domains shown) VH: QVQLVESGGGLVQPGRSLRLSCAASGFWFSNAWMHWVRQAPGKGLEWVAQIKDKGNAYAAYYAPSVKGRFTISRDDSKNSIYLQMNSLKTEDTAVYYCHYVHYASASTVLPAFGVDAWGQGTTVTVSS VL: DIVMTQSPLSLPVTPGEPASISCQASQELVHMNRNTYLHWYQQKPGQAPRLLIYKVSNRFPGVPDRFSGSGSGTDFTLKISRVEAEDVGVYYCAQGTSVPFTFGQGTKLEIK"
  fold change of affinity: "0.9 fold"

Just for reference, patent US20210388087A1 is where these values come from.
